Assay: Evaluation of bioavailability (BA), rat PK after intravenous and oral administration
Assay type: in vivo, SD rats
Settings: male, SD, plasma, 10 mg/kg, read-out: Bioavailability F (%)
MEASURED_METRIC: bioavailability (%)

- O=C(/C=C/c1ccc(C(F)(F)F)nc1N1CCCCC1)Nc1cccc2[nH]c(=O)[nH]c12: 12.5
- CC(C)Oc1nc(C(F)(F)F)ccc1CNC(=O)Nc1cccc2[nH]c(=O)[nH]c12 [Comparative Example 2, reference compound]: 1
- O=C(/C=C/c1ccc(C(F)(F)F)nc1OCC1CC1)Nc1cccc2[nH]c(=O)[nH]c12: 35.6

====

Target: human TRPV1 (hTRPV1) (Homo sapiens, UniProt Q8NER1)
Construct: host or cells: HEK (PrecisION hTRPV1-HEK recombinant cell line)
Sequence (Q8NER1 whole entry): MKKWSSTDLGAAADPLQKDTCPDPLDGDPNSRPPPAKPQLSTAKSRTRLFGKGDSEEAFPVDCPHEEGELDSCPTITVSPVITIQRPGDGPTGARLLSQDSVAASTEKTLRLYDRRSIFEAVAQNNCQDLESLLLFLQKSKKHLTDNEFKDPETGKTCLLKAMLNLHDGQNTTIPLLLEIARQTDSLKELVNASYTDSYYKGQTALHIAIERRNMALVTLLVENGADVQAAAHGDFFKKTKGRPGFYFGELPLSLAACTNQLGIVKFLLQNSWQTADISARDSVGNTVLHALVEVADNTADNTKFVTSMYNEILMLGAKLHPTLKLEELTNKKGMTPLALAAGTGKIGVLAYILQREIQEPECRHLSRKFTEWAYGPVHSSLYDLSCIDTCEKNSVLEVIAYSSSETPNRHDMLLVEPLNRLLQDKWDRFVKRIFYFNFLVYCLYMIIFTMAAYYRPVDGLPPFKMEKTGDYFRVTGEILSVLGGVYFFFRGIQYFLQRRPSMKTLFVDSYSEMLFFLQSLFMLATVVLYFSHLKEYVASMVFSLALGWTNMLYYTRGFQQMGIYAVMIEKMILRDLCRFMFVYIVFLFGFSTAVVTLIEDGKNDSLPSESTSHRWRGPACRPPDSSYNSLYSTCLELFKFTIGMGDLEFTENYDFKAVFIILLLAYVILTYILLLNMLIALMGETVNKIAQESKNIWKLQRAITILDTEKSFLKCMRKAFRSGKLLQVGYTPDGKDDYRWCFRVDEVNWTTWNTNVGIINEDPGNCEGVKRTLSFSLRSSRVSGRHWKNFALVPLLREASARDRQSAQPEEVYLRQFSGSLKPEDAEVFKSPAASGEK
Test: Ca2+ influx assay, antagonism against capsaicin in hTRPV1-HEK recombinant cells
Format: cell-based
Conditions: capsaicin 10 nM as activator, Fluo4-NW fluorescence, read-out: hTRPV1 IC50 [cap]
pIC50: −log10 of the molar value.
MEASURED_METRIC: pIC50

* O=C(/C=C/c1ccc(C(F)(F)F)nc1-c1ccco1)Nc1cccc2[nH]c(=O)[nH]c12 | 7.96
* CC(C)(C)c1ccc(/C=C/C(=O)Nc2cccc3[nH]c(=O)[nH]c23)c(OCC2CC2)c1 | 7.10
* CC(C)Oc1nc(C(F)(F)F)ccc1CNC(=O)Nc1cccc2[nH]c(=O)[nH]c12 [Comparative Example 2, reference compound] | 7.63
